Target: human Dopamine D2L receptor (Homo sapiens)
Construct: expressed in transfected cells; host or cells: CHO cells
Sequence (P14416 whole entry): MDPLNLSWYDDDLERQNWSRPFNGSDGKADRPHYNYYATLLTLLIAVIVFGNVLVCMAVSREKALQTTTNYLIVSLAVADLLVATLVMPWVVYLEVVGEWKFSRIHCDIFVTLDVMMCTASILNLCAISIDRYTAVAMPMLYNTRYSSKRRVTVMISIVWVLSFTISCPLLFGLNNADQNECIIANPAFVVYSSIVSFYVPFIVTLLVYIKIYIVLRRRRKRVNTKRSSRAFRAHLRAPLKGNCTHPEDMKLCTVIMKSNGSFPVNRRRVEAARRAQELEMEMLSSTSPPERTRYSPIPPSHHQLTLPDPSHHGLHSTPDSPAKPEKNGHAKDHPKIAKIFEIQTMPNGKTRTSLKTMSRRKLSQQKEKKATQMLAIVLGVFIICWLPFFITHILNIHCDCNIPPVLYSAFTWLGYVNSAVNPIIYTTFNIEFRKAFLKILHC
Experiment: In vitro binding affinity for human D2L receptor ([3H]Spiperone)
Conditions: membranes of human D2L receptor-transfected CHO cells, read-out: D2 (pIC50) (converted)
IC50 strictly under 800 nM means YES; at 800 nM or over means NO.

Examples with answers:
Compound | Label
CNC[C@H]1C[C@@H]2c3ccccc3Sc3sccc3[C@H]2O1 (racemic) [Compound 32] | NO
CN(CCO)C[C@H]1C[C@H]2c3ccccc3Sc3sccc3[C@@H]2O1 (relative stereo) | YES
CN(C)C1CCN(C[C@H]2C[C@@H]3c4ccccc4Sc4sccc4C3O2)C1 (relative stereo) | YES

stdin: hey, is IC50 for CNCC1CC2c3ccccc3N(Cc3ccccc3)c3ncccc3C2O1 (mixture of isomers) [Compound 37] lower than 800 nM or not?
stdout: NO

stdin: And what about the compound COC(=O)c1cc2c(s1)Sc1ccccc1[C@H]1C[C@H](CN(C)C)O[C@H]21 ?
stdout: NO

stdin: And what about the compound c1ccc2c(c1)Sc1sccc1[C@H]1O[C@@H](CN3CCC4(CC3)OCCO4)C[C@H]21 (relative stereo) ?
stdout: YES

stdin: And what about the compound OC1CCN(C[C@H]2C[C@H]3c4ccccc4Sc4sccc4[C@@H]3O2)C1 (relative stereo) ?
stdout: YES

stdin: And what about the compound OCCC1CCN(CC2CC3c4ccccc4Sc4sccc4C3O2)CC1 (centres unmarked) ?
stdout: YES

stdin: And what about the compound CNCC1CC2c3ccccc3Sc3sccc3C2O1 (single isomer, unassigned) ?
stdout: NO

stdin: And what about the compound OCCN1CCN(C[C@H]2C[C@H]3c4ccccc4Sc4sccc4[C@@H]3O2)CC1 (relative stereo) ?
stdout: YES

stdin: And what about the compound CNCC1CC2c3ccccc3Cc3sccc3C2O1 (centres unmarked) [Compound 8] ?
stdout: NO

stdin: And what about the compound CNCC1CC2c3ccccc3Cc3sccc3C2O1 (centres unmarked) [Compound 6] ?
stdout: NO

stdin: And what about the compound CN(C)CC1CC2c3ccccc3Sc3sccc3C2O1 (centres unmarked) ?
stdout: YES

stdin: And what about the compound CN(C)C[C@H]1C[C@@H]2c3ccccc3Sc3sc(CO)cc3[C@H]2O1 (racemic) ?
stdout: YES

stdin: And what about the compound c1ccc2c(c1)Sc1sccc1[C@@H]1O[C@@H](CN3CCC4(CC3)OCCO4)C[C@@H]21 (relative stereo) ?
stdout: YES

###

Target: 5-HT2C receptors (Sus scrofa, UniProt K7GSR7)
Construct: the tissue used is the choroid plexus of the pig; from tissue; host or cells: pig choroid plexus
Sequence (K7GSR7 1-457): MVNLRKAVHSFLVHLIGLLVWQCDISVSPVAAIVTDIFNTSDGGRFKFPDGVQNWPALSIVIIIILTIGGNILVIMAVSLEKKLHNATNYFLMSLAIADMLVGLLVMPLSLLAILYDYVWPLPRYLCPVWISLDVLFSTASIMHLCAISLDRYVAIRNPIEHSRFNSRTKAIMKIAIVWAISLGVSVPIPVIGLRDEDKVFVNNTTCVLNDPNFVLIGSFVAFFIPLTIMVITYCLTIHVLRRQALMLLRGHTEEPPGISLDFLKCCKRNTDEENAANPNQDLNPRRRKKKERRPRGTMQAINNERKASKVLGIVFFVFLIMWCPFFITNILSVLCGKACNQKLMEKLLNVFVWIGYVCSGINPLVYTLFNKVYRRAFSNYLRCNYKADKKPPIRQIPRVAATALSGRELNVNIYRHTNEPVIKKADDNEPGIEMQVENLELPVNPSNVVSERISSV
Test: In vitro binding affinity for 5-HT2C receptor (3H-mesulergine radioligand binding)
Details: choroid plexus of the pig, read-out: 5-HT2C (pIC50) (converted)
# key: entry, value: IC50
Give your result in nM as a bare value.

Worked set:
Compound | IC50 [nM]
CNC[C@H]1C[C@H]2c3ccccc3Sc3sccc3[C@@H]2O1 (relative stereo) | 3.98
CNCC1CC2c3ccccc3Cc3sccc3C2O1 (centres unmarked) [Compound 8] | 63.1
CNCC1CC2c3ccccc3Cc3sccc3C2O1 (centres unmarked) [Compound 6] | 39.8
COC(=O)c1cc2c(s1)Sc1ccccc1[C@H]1C[C@H](CN(C)C)O[C@H]21 | 158

Now let's try a different one.
stdin: Request body: readout IC50, system 5-HT2C receptors (Sus scrofa, UniProt K7GSR7), query CN(CCO)C[C@H]1C[C@H]2c3ccccc3Sc3sccc3[C@@H]2O1 (relative stereo) . Return the value.
stdout: 20

The reported numbers originate from patent US8404729B2.
